Reported TGI values for a set of molecules
System: OVCAR-4 ovarian
PROCEDURE_SUMMARY: NCI tumour cell line growth inhibition, 48 h
OBSERVATION_TYPE: TGI

>>> observed_measurement("O=C1/C(=C/c2ccc(C(=O)O)cc2)CNC/C1=C\\c1ccc(C(=O)O)cc1")
"> 100 µM"
>>> observed_measurement("C=C1C(O)C2OC(=O)C(=C)C2C(OC(=O)/C(C)=C/C)CC2(C)OC2C2OC12 (stereo not drawn)")
"> 100 µM"
>>> observed_measurement("COc1cc2cc(C(=O)Nc3ccccc3)c(N)nc2cc1OC")
"> 100 µM"
>>> observed_measurement("O=C(Nc1ccn(C2CCC(COC(c3ccccc3)(c3ccccc3)c3ccccc3)O2)c(=O)n1)c1ccccc1 (stereo not drawn)")
"7.71 µM"
>>> observed_measurement("Cn1cnc([N+](=O)[O-])c1Sc1nnc(-c2ccc(Cl)cc2)n1C")
"27.1 µM"
>>> observed_measurement("O=C1C2Cc3ccccc3CN2C(=O)N1CN1CCCCC1 (stereo not drawn)")
"> 100 µM"
>>> observed_measurement("COc1ccc2nc3c(nc2c1)C(C)(C)C=C3c1ccc(Br)cc1")
"> 100 µM"
>>> observed_measurement("O=C(Nc1c(Cl)cccc1Cl)Oc1cccc2cccnc12")
"14 µM"
>>> observed_measurement("CN1C(=O)c2c(c3c4ccccc4n(C)c3c3c2c2ccccc2n3C)C1=O")
"> 100 µM"
>>> observed_measurement("CN1C(=O)CC(CC(=O)C2CCCCC2=O)CC1=O (stereo not drawn)")
"> 100 µM"
>>> observed_measurement("COc1cc2ccnc3c2c(c1OC)N(C)C=C3")
"71.2 µM"
>>> observed_measurement("O=S1c2ccccc2N=C(c2cccs2)CC1c1ccccc1O (stereo not drawn)")
"> 100 µM"
>>> observed_measurement("NC(=O)C1CCCN1Cc1ccc2c(c1)OCO2 (stereo not drawn)")
"> 100 µM"
>>> observed_measurement("O=C(Cn1cc(I)c(C(=O)NCC(O)CO)n1)NCC(O)CO (stereo not drawn)")
"> 100 µM"
>>> observed_measurement("COc1ccc(CC2OC3(CCCCC3)CC3CCCCN32)cc1 (stereo not drawn)")
"> 100 µM"
>>> observed_measurement("O=C(Nc1cccc(Cl)c1)Nc1cc(C(F)(F)F)ccc1Cl")
"16.6 µM"
>>> observed_measurement("CCOC(=O)C(NS(=O)(=O)c1ccccc1)(C(F)(F)F)P(=O)(OCC(C)C)OCC(C)C (stereo not drawn)")
"> 100 µM"
>>> observed_measurement("Clc1ccc(CCNCCNC2(c3cc4ccccc4s3)CCCCC2)cc1Cl")
"3.17 µM"
>>> observed_measurement("C[C@]12CC[C@@H]3c4cc(C=O)c(OCc5ccccc5)cc4CC[C@H]3[C@@H]1CCC2OCc1ccccc1 (stereo partly drawn)")
"> 100 µM"
>>> observed_measurement("Cc1ccccc1N=C(c1ccccc1)C1C(=O)c2ccccc2C1=O")
"> 100 µM"
>>> observed_measurement("C#CCn1c(=O)c2cc(OC)c(OC)cc2n(CC#C)c1=O")
"> 10 µM"
>>> observed_measurement("c1ccc(C(OCCN2CC3CCC(C2)N3)c2ccccc2)cc1")
"> 100 µM"
>>> observed_measurement("c1ccc(C2SCc3nc4ccccc4n32)cc1 (stereo not drawn)")
"> 100 µM"

Reference source: PubChem BioAssay (NCI)
